ASSAYED_SYSTEM: hSTING-R232 (Homo sapiens, UniProt Q86WV6, H232R)
Construct: host or cells: THP1-Dual KI-hSTING-R232 (from THP1-Dual KO-STING)
Sequence (Q86WV6 whole entry H232R): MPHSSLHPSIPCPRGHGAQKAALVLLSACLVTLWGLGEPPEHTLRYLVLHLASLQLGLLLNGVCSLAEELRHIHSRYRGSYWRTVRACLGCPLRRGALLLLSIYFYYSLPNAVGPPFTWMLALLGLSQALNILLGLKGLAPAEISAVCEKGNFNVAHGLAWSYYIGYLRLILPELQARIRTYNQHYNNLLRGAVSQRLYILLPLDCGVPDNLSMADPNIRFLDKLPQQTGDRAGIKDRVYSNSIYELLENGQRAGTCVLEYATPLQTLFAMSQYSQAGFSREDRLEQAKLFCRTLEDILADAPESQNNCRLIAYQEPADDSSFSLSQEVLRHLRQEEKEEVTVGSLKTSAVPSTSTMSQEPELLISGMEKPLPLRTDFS
ASSAY: THP1-Dual KI-hSTING-R232 reporter assay (IRF pathway, secreted Lucia luciferase)
Type: cell-based
EXPERIMENTAL_SETUP: THP1-Dual KI-hSTING-R232 cells, 24 hours; read-out: Reporter assay EC50 (nM) THP-1-R232
Parameter EC50: see the listing below.

Answered examples (2):
input: Give its EC50 value. Item: CCn1nc(C)cc1C(=O)Nc1nc2cc(C(N)=O)cc(OC)c2n1C/C=C/Cn1c(N2CCn3nc(C)cc3C2=O)nc2cc(C(N)=O)cc(OCCCN3CC4(CNCCO4)C3)c21 [Compound 5]
output: > 150 nM

input: Give its EC50 value. Item: CCc1nc(C)oc1C(=O)Nc1nc2cc(C(N)=O)cc(OCCCN3CC4(C3)CN(C(=O)CNC)CCO4)c2n1C/C=C/Cn1c(NC(=O)c2cc(C)nn2CC)nc2cc(C(N)=O)cc(OC)c21 [Compound 18]
output: 50 to 150 nM

Now let's try a different one.
input: Give its EC50 value. Item: CCn1nc(C)cc1C(=O)Nc1nc2cc(C(N)=O)cc(OC)c2n1C/C=C/Cn1c(NC(=O)c2cn(C)nc2CN)nc2cc(C(N)=O)cc(OCCCN3CC4(CCCCO4)C3)c21 [Compound 63]
output: > 150 nM

====

ASSAYED_SYSTEM: hSTING-HAQ haplotype (Homo sapiens, UniProt Q86WV6, G230A/H232R/R293Q/R71H)
Construct: host or cells: THP-1-Dual
Sequence (Q86WV6 whole entry R71H/G230A/H232R/R293Q): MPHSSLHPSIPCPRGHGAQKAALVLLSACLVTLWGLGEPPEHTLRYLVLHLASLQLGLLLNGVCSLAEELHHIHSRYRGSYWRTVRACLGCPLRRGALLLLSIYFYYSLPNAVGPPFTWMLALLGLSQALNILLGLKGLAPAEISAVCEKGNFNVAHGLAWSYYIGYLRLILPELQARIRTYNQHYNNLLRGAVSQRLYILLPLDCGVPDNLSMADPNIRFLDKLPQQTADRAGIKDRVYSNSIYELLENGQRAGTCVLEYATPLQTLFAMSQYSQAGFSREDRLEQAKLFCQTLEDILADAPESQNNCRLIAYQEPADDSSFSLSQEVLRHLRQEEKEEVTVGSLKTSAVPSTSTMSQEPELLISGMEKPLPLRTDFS
ASSAY: THP-1-Dual reporter assay (endogenous hSTING-HAQ)
Assay type: cell-based
EXPERIMENTAL_SETUP: THP-1-Dual cells (hSTING-HAQ), 24 hours
METRIC: EC50

Answered examples (5):
input: Give hSTING-HAQ haplotype (Homo sapiens, UniProt Q86WV6, G230A/H232R/R293Q/R71H) EC50 for "CCc1cc(C(=O)Nc2nc3cc(C(N)=O)cc(OCCCN4CC5(CNCCO5)C4)c3n2C/C=C/Cn2c(NC(=O)c3cc(C)nn3CC)nc3cc(C(N)=O)cc(OC)c32)n(C)n1"
output: > 150 nM

input: Give hSTING-HAQ haplotype (Homo sapiens, UniProt Q86WV6, G230A/H232R/R293Q/R71H) EC50 for "CCc1nc(C)oc1C(=O)Nc1nc2cc(C(N)=O)cc(OCCCN3CC4(C3)CN(C(=O)[C@H](CC(C)C)NC)CCO4)c2n1C/C=C/Cn1c(NC(=O)c2cc(C)nn2CC)nc2cc(C(N)=O)cc(OC)c21"
output: 50 to 150 nM

input: Give hSTING-HAQ haplotype (Homo sapiens, UniProt Q86WV6, G230A/H232R/R293Q/R71H) EC50 for "CCn1nc(C)cc1C(=O)Nc1nc2cc(C(N)=O)cnc2n1C/C=C/Cn1c(NC(=O)c2cc(C)nn2CC)nc2cc(C(N)=O)cc(OCCCN3CCC(c4nnc5n4CCNC5)CC3)c21"
output: > 150 nM

input: Give hSTING-HAQ haplotype (Homo sapiens, UniProt Q86WV6, G230A/H232R/R293Q/R71H) EC50 for "CCc1nc(C)oc1C(=O)Nc1nc2cc(C(N)=O)cc(OCCCN3CC4(C3)CN(C(=O)[C@@H](N)CC(C)C)CCO4)c2n1C/C=C/Cn1c(NC(=O)c2cc(C)nn2CC)nc2cc(C(N)=O)cc(OC)c21"
output: ≤ 50 nM

input: Give hSTING-HAQ haplotype (Homo sapiens, UniProt Q86WV6, G230A/H232R/R293Q/R71H) EC50 for "CCn1nc(C)cc1C(=O)Nc1nc2cc(C(N)=O)cc(OC)c2n1C/C=C/Cn1c(NC(=O)C23CCC(C)(CC2)CC3)nc2cc(C(N)=O)cc(OCCCN3CC4(CNCCO4)C3)c21"
output: > 150 nM

---
input: Give hSTING-HAQ haplotype (Homo sapiens, UniProt Q86WV6, G230A/H232R/R293Q/R71H) EC50 for "CCn1nc(C)cc1C(=O)Nc1nc2cc(C(N)=O)cc3c2n1C/C=C/Cn1c(NC(=O)c2cc(C)nn2CC)nc2cc(C(N)=O)cc(c21)OCC1(CNC1)CO3"
output: > 150 nM

input: Give hSTING-HAQ haplotype (Homo sapiens, UniProt Q86WV6, G230A/H232R/R293Q/R71H) EC50 for "CCc1nc(C)oc1C(=O)Nc1nc2cc(C(N)=O)cc(OCCCN3CC4(C3)CN(C(=O)CNC)CCO4)c2n1C/C=C/Cn1c(NC(=O)c2cc(C)nn2CC)nc2cc(C(N)=O)cc(OC)c21"
output: 50 to 150 nM

====

Parameter EC50: see the listing below.
ASSAYED_SYSTEM: hSTING-HAQ haplotype (Homo sapiens, UniProt Q86WV6, G230A/H232R/R293Q/R71H)
Construct: host or cells: THP-1-Dual
ASSAY: THP-1-Dual reporter assay (endogenous hSTING-HAQ)
Format: cell-based
EXPERIMENTAL_SETUP: THP-1-Dual cells (hSTING-HAQ), 24 hours

input: Give hSTING-HAQ haplotype (Homo sapiens, UniProt Q86WV6, G230A/H232R/R293Q/R71H) EC50 for CCn1nc(C)cc1C(=O)Nc1nc2cc(C(N)=O)ccc2n1C/C=C/Cn1c(NC(=O)c2cc(C)nn2CC)nc2cc(C(N)=O)cc(OCCCN3CC4(C3)CN(C(=O)CON=C(C)c3ccc(C[C@H](N)C(=O)O)cc3)CCO4)c21 (racemic)
output: > 150 nM

---
input: Give hSTING-HAQ haplotype (Homo sapiens, UniProt Q86WV6, G230A/H232R/R293Q/R71H) EC50 for "CCc1nc(C)oc1C(=O)Nc1nc2cc(C(N)=O)cc(OCCCN3CC4(C3)CN(C(=O)[C@H](N)CC(C)C)CCO4)c2n1C/C=C/Cn1c(NC(=O)c2cc(C)nn2CC)nc2cc(C(N)=O)cc(OC)c21"
output: 50 to 150 nM

input: Give hSTING-HAQ haplotype (Homo sapiens, UniProt Q86WV6, G230A/H232R/R293Q/R71H) EC50 for "CCn1nc(C)cc1C(=O)Nc1nc2cc(C(N)=O)cc(OC)c2n1C/C=C/Cn1c(NC(=O)c2cc(C)nn2CC)nc2cc(C(N)=O)cc(OCCCN3CCC(c4nnc5n4CCNC5)CC3)c21"
output: 50 to 150 nM

input: Give hSTING-HAQ haplotype (Homo sapiens, UniProt Q86WV6, G230A/H232R/R293Q/R71H) EC50 for "CCn1nc(C)cc1C(=O)Nc1nc2cc(C(N)=O)cc(OC)c2n1C/C=C/Cn1c(NC(=O)c2cc(C)nn2CC)nc2cc(C(N)=O)cc(OCCCN3CC4(CNCCO4)C3)c21"
output: ≤ 50 nM

input: Give hSTING-HAQ haplotype (Homo sapiens, UniProt Q86WV6, G230A/H232R/R293Q/R71H) EC50 for "CCn1nc(C)cc1C(=O)Nc1nc2cc(C(N)=O)ccc2n1C/C=C/Cn1c(NC(=O)c2cc(C)nn2CC)nc2cc(C(N)=O)cc(OCCCN3CC4(CNCCO4)C3)c21"
output: ≤ 50 nM

input: Give hSTING-HAQ haplotype (Homo sapiens, UniProt Q86WV6, G230A/H232R/R293Q/R71H) EC50 for "CCc1nc(C)oc1C(=O)Nc1nc2cc(C(N)=O)cc(OCCCN3CC4(CNCCO4)C3)c2n1C/C=C/Cn1c(NC(=O)c2cc(C)nn2CC)nc2cc(C(N)=O)cnc21"
output: 50 to 150 nM

input: Give hSTING-HAQ haplotype (Homo sapiens, UniProt Q86WV6, G230A/H232R/R293Q/R71H) EC50 for "CCn1nc(C)cc1C(=O)Nc1nc2cc(C(N)=O)cc(OC)c2n1C/C=C/Cn1c(NC(=O)Cc2cnc(C)o2)nc2cc(C(N)=O)cc(OCCCN3CC4(CNCCO4)C3)c21"
output: > 150 nM

input: Give hSTING-HAQ haplotype (Homo sapiens, UniProt Q86WV6, G230A/H232R/R293Q/R71H) EC50 for "CCn1nc(C)cc1C(=O)Nc1nc2cc(C(N)=O)cnc2n1CCCCn1c(NC(=O)c2cc(C)nn2CC)nc2cc(C(N)=O)cc(OCCCN3CCC(c4nnc5n4CCNC5)CC3)c21"
output: > 150 nM

input: Give hSTING-HAQ haplotype (Homo sapiens, UniProt Q86WV6, G230A/H232R/R293Q/R71H) EC50 for "CCc1nc(C)oc1C(=O)Nc1nc2cc(C(N)=O)cc3c2n1C/C=C/Cn1c(NC(=O)c2cc(C)nn2CC)nc2cc(C(N)=O)cc(c21)OCC1(CNC1)CO3"
output: > 150 nM

input: Give hSTING-HAQ haplotype (Homo sapiens, UniProt Q86WV6, G230A/H232R/R293Q/R71H) EC50 for "CCc1nc(C)oc1C(=O)Nc1nc2cc(C(N)=O)cc(OCCCN3CC4(CNCCO4)C3)c2n1C/C=C/Cn1c(NC(=O)c2cc(C)nn2CC)nc2cc(C(N)=O)cc(OC)c21"
output: ≤ 50 nM
